- Test system: rat under pentobarbital anesthesia
- assay summary: Test Example 9: effect on blood pressure and heart rate of rat under pentobarbital anesthesia
- Type: in vivo
- test parameters: 3 mg/kg intravenous, male SD rat, average value ± standard error of largest change
Binarize increase in MBP (%) at 3%; below is 1, at or above is 0.

> print(dat)
                                   molecule  cat
1  COc1n[nH]c2cc(OCCNC[C@H](O)c3cccc(NS(=O)(=O)c4ccccc4)c3)ccc12 [Example 16]    0

Query string: In the record for COCc1n[nH]c2cc(OCCNC[C@H](O)c3cccc(NS(C)(=O)=O)c3)ccc12 [Example 6] , is increase in MBP (%) less than 3%?
Result string: 1

Query string: Record CS(=O)(=O)Nc1cccc([C@@H](O)CNCCOc2ccc3c(C(F)(F)F)n[nH]c3c2)c1 [Example 4] : is its increase in MBP (%) strictly below 3%?
Result string: 0

Query string: A record lists CCc1n[nH]c2cc(OCCNC[C@H](O)c3ccc(Cl)c(NS(C)(=O)=O)c3)ccc12 [Example 9] . Is its increase in MBP (%) below 3%?
Result string: 1

Query string: # TODO verify increase in MBP (%) < 3% strictly for this molecule: CCCc1n[nH]c2cc(OCCNC[C@H](O)c3cccc(NS(C)(=O)=O)c3)ccc12 [Example 3]
Result string: 0

Query string: Strictly below 3%: is that where increase in MBP (%) of CCc1n[nH]c2cc(OCCNC[C@H](O)c3cccc(NS(C)(=O)=O)c3)ccc12 [Example 2] sits?
Result string: 0

====

Record form. Attribute: Emax. Fill in for each entry.
- tested on: human α1A adrenergic receptor (Homo sapiens)
- Construct: expressed in transfected cells; host or cells: HEK293 cells, pcDNA3.1(−), hygromycin B selection
- Sequence (P35348 whole entry): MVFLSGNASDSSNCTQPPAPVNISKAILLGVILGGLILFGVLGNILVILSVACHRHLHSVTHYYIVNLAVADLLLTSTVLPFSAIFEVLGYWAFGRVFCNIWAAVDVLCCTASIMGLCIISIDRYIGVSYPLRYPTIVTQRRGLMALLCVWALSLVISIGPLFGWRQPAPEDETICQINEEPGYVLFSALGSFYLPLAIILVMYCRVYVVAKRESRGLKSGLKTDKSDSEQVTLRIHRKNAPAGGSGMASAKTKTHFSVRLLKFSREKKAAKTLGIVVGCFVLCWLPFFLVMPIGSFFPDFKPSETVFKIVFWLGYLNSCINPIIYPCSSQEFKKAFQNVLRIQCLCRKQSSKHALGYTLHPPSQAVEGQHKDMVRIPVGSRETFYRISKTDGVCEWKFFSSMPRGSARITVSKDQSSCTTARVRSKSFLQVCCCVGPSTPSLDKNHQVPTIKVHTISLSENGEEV
- assay summary: Test Example 4: human α1A adrenergic receptor agonist activity (Ca flux, Fura-2, transfected HEK293 cells)
- Type: cell-based
- test parameters: HEK293; read-out: α1A receptor I.A.
Answers are plain numbers, in %.

> print(dat)
                                   compound  assay.metric  measured.result
1  CS(=O)(=O)Nc1cc([C@@H](O)CNCCOc2ccc3c(C(F)(F)F)n[nH]c3c2)ccc1Cl [Example 11]          Emax                0
2  CC(C)c1n[nH]c2cc(OCCNC[C@H](O)c3ccc(Cl)c(NS(C)(=O)=O)c3)ccc12 [Example 7]          Emax                0
3  CCCc1n[nH]c2cc(OCCNC[C@H](O)c3cccc(NS(C)(=O)=O)c3)ccc12 [Example 3]          Emax                0
4  NC[C@H](O)c1ccc(O)c(O)c1 [Norepinephrine, reference compound]          Emax              100
5  CCc1n[nH]c2cc(OCCNC[C@H](O)c3cccc(NS(=O)(=O)C(C)C)c3)ccc12 [Example 13]          Emax               20

Okay, next one:
Query string: I am curious: what Emax value has been reported for CCc1n[nH]c2cc(OCCNC[C@H](O)c3ccc(F)c(NS(C)(=O)=O)c3)ccc12 [Example 8] ?
Result string: 5

====

- tested on: human α1A adrenergic receptor (Homo sapiens)
- Construct: expressed in transfected cells; host or cells: HEK293 cells, pcDNA3.1(−), hygromycin B selection
- assay summary: Test Example 4: human α1A adrenergic receptor agonist activity (Ca flux, Fura-2, transfected HEK293 cells)
- Type: cell-based
- test parameters: Table 2; Test Example 4; read-out: α1A receptor EC50
assay metric: EC50

These solved cases illustrate the format of a correct answer.
> print(dat)
                                chem.smiles  assay.metric  measured.result
1  CCc1n[nH]c2cc(OCCNC[C@H](O)c3cccc(NS(=O)(=O)C(C)C)c3)ccc12          EC50        > 2000 nM
2  CCc1n[nH]c2cc(OCCNC[C@H](O)c3ccc(F)c(NS(C)(=O)=O)c3)ccc12          EC50        > 2000 nM
3  CCCc1n[nH]c2cc(OCCNC[C@H](O)c3cccc(NS(C)(=O)=O)c3)ccc12          EC50        > 2000 nM
4  CCc1n[nH]c2cc(OCCNC[C@H](O)c3ccc(Cl)c(NS(C)(=O)=O)c3)ccc12          EC50        > 2000 nM

Dear colleague, could you send me EC50 for each of the items below? Thanks.
1. CS(=O)(=O)Nc1cc([C@@H](O)CNCCOc2ccc3c(C(F)(F)F)n[nH]c3c2)ccc1Cl
2. COc1n[nH]c2cc(OCCNC[C@H](O)c3cccc(NS(=O)(=O)c4ccccc4)c3)ccc12
3. CS(=O)(=O)Nc1cc([C@@H](O)CNCCOc2ccc3c(C(F)(F)F)n[nH]c3c2)ccc1F
4. CC(C)c1n[nH]c2cc(OCCNC[C@H](O)c3ccc(Cl)c(NS(C)(=O)=O)c3)ccc12

Result string:
1. > 2000 nM
2. > 2000 nM
3. 1290 nM
4. > 2000 nM

For each of the compounds below, note its EC50.
1. CCc1n[nH]c2cc(OCCNC[C@H](O)c3cccc(NS(=O)(=O)CC)c3)ccc12
2. CCc1n[nH]c2cc(OCCNC[C@H](O)c3cccc(NS(=O)(=O)c4ccccc4)c3)ccc12

Result string:
1: 488 nM; 2: > 2000 nM

====

- tested on: human β3 adrenergic receptor (Homo sapiens)
- Construct: the full length human β3 gene is obtained from a human genomic library; expressed in transfected cells; host or cells: CHO (Chinese Hamster Ovary) cells, pcDNA3, geneticin selection
- Sequence (P13945 whole entry): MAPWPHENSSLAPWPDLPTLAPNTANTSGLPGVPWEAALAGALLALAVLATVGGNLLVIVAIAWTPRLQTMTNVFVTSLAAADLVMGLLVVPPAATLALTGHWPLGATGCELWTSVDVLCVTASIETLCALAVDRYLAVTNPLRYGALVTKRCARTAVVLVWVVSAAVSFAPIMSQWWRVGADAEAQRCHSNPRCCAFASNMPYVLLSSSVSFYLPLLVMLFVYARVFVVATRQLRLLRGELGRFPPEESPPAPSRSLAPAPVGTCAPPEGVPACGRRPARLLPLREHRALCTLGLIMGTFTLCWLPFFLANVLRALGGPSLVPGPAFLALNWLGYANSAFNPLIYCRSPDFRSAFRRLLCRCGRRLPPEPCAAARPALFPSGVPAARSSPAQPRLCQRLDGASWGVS
- assay summary: Test Example 1-B: human β3 adrenergic receptor agonist activity (cAMP-Screen kit, transfected CHO cells, 96-well)
- Format: cell-based
- test parameters: Table 2; Test Example 1-B
assay metric: pEC50
Numbers only, as −log10 of the molar value.

> print(dat)
                                 chem.smiles                                 tested.on  measured.result
 1  Cc1n[nH]c2cc(OCCNC[C@H](O)c3cccc(NS(=O)(=O)C(C)C)c3)ccc12  human β3 adrenergic receptor (Homo sapiens)             7.08
 2  CC(C)c1n[nH]c2cc(OCCNC[C@H](O)c3cccc(NS(C)(=O)=O)c3)ccc12  human β3 adrenergic receptor (Homo sapiens)             7.77
 3  CCc1n[nH]c2cc(OCCNC[C@H](O)c3cccc(NS(=O)(=O)CC)c3)ccc12  human β3 adrenergic receptor (Homo sapiens)             7.96
 4  CCc1n[nH]c2cc(OCCNC[C@H](O)c3ccc(Cl)c(NS(C)(=O)=O)c3)ccc12  human β3 adrenergic receptor (Homo sapiens)             7.54
 5  CCc1n[nH]c2cc(OCCNC[C@H](O)c3cccc(NS(=O)(=O)C(C)C)c3)ccc12  human β3 adrenergic receptor (Homo sapiens)             7.33
 6  CS(=O)(=O)Nc1cc([C@@H](O)CNCCOc2ccc3c(C(F)(F)F)n[nH]c3c2)ccc1Cl  human β3 adrenergic receptor (Homo sapiens)             7.82
 7  CCc1n[nH]c2cc(OCCNC[C@H](O)c3ccc(F)c(NS(C)(=O)=O)c3)ccc12  human β3 adrenergic receptor (Homo sapiens)             7.77
 8  CCc1n[nH]c2cc(OCCNC[C@H](O)c3cccc(NS(=O)(=O)c4ccccc4)c3)ccc12  human β3 adrenergic receptor (Homo sapiens)             7.89
 9  Cc1n[nH]c2cc(OCCNC[C@H](O)c3cccc(NS(=O)(=O)c4ccccc4)c3)ccc12  human β3 adrenergic receptor (Homo sapiens)             8.00
10  CCc1n[nH]c2cc(OCCNC[C@H](O)c3cccc(NS(C)(=O)=O)c3)ccc12  human β3 adrenergic receptor (Homo sapiens)             7.77

Dear colleague, could you please provide pEC50 for the compounds listed below?
1. CC(C)c1n[nH]c2cc(OCCNC[C@H](O)c3ccc(Cl)c(NS(C)(=O)=O)c3)ccc12
2. CS(=O)(=O)Nc1cc([C@@H](O)CNCCOc2ccc3c(C(F)(F)F)n[nH]c3c2)ccc1F
3. COc1n[nH]c2cc(OCCNC[C@H](O)c3cccc(NS(=O)(=O)c4ccccc4)c3)ccc12

Result string:
7.89
7.39
7.77

Query string: Which measured pEC50 value corresponds to CS(=O)(=O)Nc1cccc([C@@H](O)CNCCOc2ccc3c(C(F)(F)F)n[nH]c3c2)c1 ?
Result string: 7.31

====

- tested on: human β3 adrenergic receptor (Homo sapiens)
- Construct: the full length human β3 gene is obtained from a human genomic library; expressed in transfected cells; host or cells: CHO (Chinese Hamster Ovary) cells, pcDNA3, geneticin selection
- assay summary: Test Example 1-A: human β3 adrenergic receptor agonist activity (cAMP EIA, transfected CHO cells, 24-well)
- Assay type: cell-based
- test parameters: Table 1; Test Example 1-A
assay metric: pEC50
One number for each entry, as −log10 of the molar value.

> print(dat)
                                   molecule  assay.metric  measured.result
1  CN(C)C(=O)CCc1n[nH]c2cc(OCCNC[C@H](O)c3cccc(NS(C)(=O)=O)c3)ccc12 [Example 5]         pEC50             7.29

Working through the 3 molecules below one at a time, give pEC50 for each.
1. COCc1n[nH]c2cc(OCCNC[C@H](O)c3cccc(NS(C)(=O)=O)c3)ccc12 [Example 6]
2. CCCc1n[nH]c2cc(OCCNC[C@H](O)c3cccc(NS(C)(=O)=O)c3)ccc12 [Example 3]
3. CCc1n[nH]c2cc(OCCNC[C@H](O)c3cccc(NS(C)(=O)=O)c3)ccc12 [Example 2]

Result string:
1: 8.13; 2: 7.54; 3: 7.54
